testMethodNotes: Acute toxicity (LD50), method of Lichtfield and Wilcoxon, rats
conditionSummary: rat, in vivo, ip, intraperitoneal
measureName: LD50 (mg/kg)
Report the value in mg/kg with no unit label.

The compound identified as "CC(C)(Oc1cccc2ccccc12)C(=O)Nc1ccc(C(=O)O)cc1" registered its LD50 at 425

---

testMethodNotes: Acute toxicity (LD50), method of Lichtfield and Wilcoxon, mice
conditionSummary: mouse, in vivo, oral
measureName: LD50 (mg/kg)
Report the value in mg/kg with no unit label.

The molecule identified as "CC(C)(Oc1cccc2ccccc12)C(=O)Nc1ccc(C(=O)O)cc1" registered its LD50 at 2500

Values from patent US4183954A
